Reported Kd values follow for various binders
Test system: CW6W54.001
Method: SPR Biacore 8K, captured mAb; Kinetic fit not valid
Measurement type: Kd (nM)

# Binder, Measurement type, Units text, Measured value
data = [
    ("CW6B229 (antibody, V domains shown, also called CW6B229.001; CW6M229 (DNA ID)) VH: QVQLQESGPGLVKPSETLSLTCTVSGNSIRSYYWSWIRQPAGKGLEWIGRIYISGNTNYNPSLKSRVTMSIDTSKNQFSLKLSSVTAADTAVFYCARLSGIDAFDIWGQGTMVTVSS VL: DIQMTQSPSSLSASVGDRVTITCQASQDISNYLNWYQQKPGKAPKLLIYDASNLETGVPSRFSGSGSGTDFTFTISSLQPEDFATYYCQQYDNLPITFGQGTRLEIK", "Kd", "nM", 0.673),
    ("CW6B230 (antibody, V domains shown, also called CW6B230.001; CW6M230 (DNA ID)) VH: QVQLQESGPGLVKPSETLSLTCTVSGNSISNYYWSWIRQPAGKGLEWIGRIYITGNTNYNPSLKSRVTMSLDTSKNQFSLKLSSVTAADTAVYYCARLSGIDAFDIWGQGTMVTVSS VL: DIQMTQSPSTLSASVGDRVTFTCQASQDITKYLNWYQQKPGKAPKLLIYDASNLETGVPSRFSGSGSGTDFTFTISSLQPEDFATYYCQQYDDLPITFGQGTRLEIK", "Kd", "nM", 1.4),
    ("CW6B233 (antibody, V domains shown, also called CW6B233.001; CW6M233 (DNA ID)) VH: QVQLQESGPGLVKPSETLSLTCTVSGNSIRSYYWSWIRQPAGKGLEWIGRIYISGNTNYNPSLKSRVTMSIDTSKNQFSLKLSSVTAADTAVYYCARLSGIDAFDIWGQGTMVTVSS VL: DIQMTQSPSSLSASVGDRVTITCQASQDITNYLNWYQQKPGKAPKLLIYDASNLETGVPSRFSGSGSGTDFTFTISSLQPEDFATYYCQQYDNLPITFGQGTRLEIK", "Kd", "nM", 0.798),
    ("CW6B130 (antibody, V domains shown, also called CW6B130.001; CW6M130 (DNA ID)) VH: QLQLQESGPGLVKPSETLSLTCTVSGASISSINYYWGWIRQPPGKGLEWIGSFYYSGNTYYNPSLKSRVTISVDTSKNYFSLKLNSVTAADTAVYYCAREYYDSSGYYPFEPWGQGTLVTVSS VL: SYVLTQPPSVSVAPGQTARITCGGDNIGSESVHWYQQKPGQAPVLVVYDDTDRPSGIPERFSGSKSGTTATLTISWVEAGDEADYYCQVWDSSSDHVVFGGGTKLTVL", "Kd", "nM", 0.0828),
]
